condition: in methanol, 293.15 K
measurement.type: solubility (mole fraction)

CC(=NC#N)N(C)Cc1ccc(Cl)nc1 | 0.0325

* * *

condition: in NMP, 318.15 K
measurement.type: solubility (mole fraction)

CC(=NC#N)N(C)Cc1ccc(Cl)nc1 | 0.589

* * *

condition: in DMSO, 298.15 K
measurement.type: solubility (mole fraction)

CC(=NC#N)N(C)Cc1ccc(Cl)nc1 | 0.426

* * *

condition: in DMF, 308.15 K
measurement.type: solubility (mole fraction)

CC(=NC#N)N(C)Cc1ccc(Cl)nc1 | 0.421

* * *

condition: in DMF, 278.15 K
measurement.type: solubility (mole fraction)

CC(=NC#N)N(C)Cc1ccc(Cl)nc1 | 0.175

* * *

condition: in isopropanol, 278.15 K
measurement.type: solubility (mole fraction)

CC(=NC#N)N(C)Cc1ccc(Cl)nc1 | 0.0067

* * *

condition: in ethylene glycol, 293.15 K
measurement.type: solubility (mole fraction)

CC(=NC#N)N(C)Cc1ccc(Cl)nc1 | 0.0163

* * *

condition: in acetone, 298.15 K
measurement.type: solubility (mole fraction)

CC(=NC#N)N(C)Cc1ccc(Cl)nc1 | 0.191

* * *

condition: in n-butanol, 298.15 K
measurement.type: solubility (mole fraction)

CC(=NC#N)N(C)Cc1ccc(Cl)nc1 | 0.00284

* * *

condition: in DMF, 313.15 K
measurement.type: solubility (mole fraction)

CC(=NC#N)N(C)Cc1ccc(Cl)nc1 | 0.477

* * *

condition: in ethanol, 298.15 K
measurement.type: solubility (mole fraction)

CC(=NC#N)N(C)Cc1ccc(Cl)nc1 | 0.0328

* * *

condition: in isobutanol, 278.15 K
measurement.type: solubility (mole fraction)

CC(=NC#N)N(C)Cc1ccc(Cl)nc1 | 0.0028

* * *

condition: in NMP, 293.15 K
measurement.type: solubility (mole fraction)

CC(=NC#N)N(C)Cc1ccc(Cl)nc1 | 0.299

* * *

condition: in acetone, 308.15 K
measurement.type: solubility (mole fraction)

CC(=NC#N)N(C)Cc1ccc(Cl)nc1 | 0.264

* * *

condition: in DMSO, 293.15 K
measurement.type: solubility (mole fraction)

CC(=NC#N)N(C)Cc1ccc(Cl)nc1 | 0.376

* * *

condition: in ethanol, 308.15 K
measurement.type: solubility (mole fraction)

CC(=NC#N)N(C)Cc1ccc(Cl)nc1 | 0.0448

* * *

condition: in isobutanol, 283.15 K
measurement.type: solubility (mole fraction)

CC(=NC#N)N(C)Cc1ccc(Cl)nc1 | 0.00315

* * *

condition: in isobutanol, 293.15 K
measurement.type: solubility (mole fraction)

CC(=NC#N)N(C)Cc1ccc(Cl)nc1 | 0.00452

* * *

condition: in acetone, 283.15 K
measurement.type: solubility (mole fraction)

CC(=NC#N)N(C)Cc1ccc(Cl)nc1 | 0.118

* * *

condition: in ethyl acetate, 303.15 K
measurement.type: solubility (mole fraction)

CC(=NC#N)N(C)Cc1ccc(Cl)nc1 | 0.0281

* * *

condition: in NMP, 313.15 K
measurement.type: solubility (mole fraction)

CC(=NC#N)N(C)Cc1ccc(Cl)nc1 | 0.523
